- testMethodNotes: Acute toxicity in ddY strain mice, up and down method, oral
- measurementConditions: mouse, in vivo, suspended in 1% methyl cellulose, given orally, observation 24 hours, read-out: LD50 (per os)
readoutLabel: LD50 at 24 h (mg/kg)
Answer with a number only, understood to be in mg/kg.

Query (compound): CC(C)=CCCC(C)=CCCC(C)=CCNC(=O)CC=C(C)CCC=C(C)CCC=C(C)C [Compound VI, N-Farnesyl farnesyl carboxamide] ; field requested: LD50 at 24 h 18700

What about this compound? CC(C)=CCCC(C)=CCCC(C)=CCNC(=O)OCC=C(C)CCC=C(C)CCC=C(C)C [Compound VII, N-Farnesyl farnesyl carbamate] 20200

What about this compound? CC(C)=CCCC(C)=CCCC(C)=CCOC(=O)CC=C(C)CCC=C(C)CCC=C(C)C [Compound V, Farnesyl farnesyl carboxylate] 24500
